# System: recombinant type II pullulanase Sumo-PulPy
# procedure-details: Effect of metal ions and chemical reagents on the enzyme activity of Sumo-PulPy
# Format: biochemical, Pyrococcus yayanosii CH1
# condition: reagent 2 mM; 100% = no reagent, 95° C., pH 6.6
test-readout: Relative enzyme activity (%)
# value in %; strip the unit string

Item [Cl][Mn][Cl] has what recorded Relative enzyme activity (%)?
91.2

Any idea what Relative enzyme activity (%) was measured for [Cl-].[Cl-].[Mg+2] ?
94.9

For [Ca+2].[Cl-].[Cl-] , what is its reported Relative enzyme activity (%)?
71.3

Endpoint output: Relative enzyme activity (%) of [Cl][Cu][Cl] . Value?
45.9

Sourced from patent US12319941B2
